- Tested on: Nrf2 (Mus musculus)
- TEST DESCRIPTION: Activation of Nrf2 in mouse Hepa1c1c7 cells assessed as increase in NQO1 activity at 20 uM using menadione as substrate incubated for 20 mins followed by substrate addition and measured after 30 mins by spectrophotometry relative to control
- TEST SETTINGS: filed as activator, time 50.0 min
Reported T/C values for the following compounds.
Lab note: jot the number down without any unit.

Param readout= T/C; system= Nrf2 (Mus musculus); entry= CCc1cccc(NC(=O)CSc2nc3c(I)cc(I)cc3c(=O)n2-c2ccc(S(N)(=O)=O)cc2)c1 ; returns value. 1.15

Return T/C measured with Nrf2 (Mus musculus) given this compound: CCOc1ccc(NC(=O)CSc2nc3c(I)cc(I)cc3c(=O)n2-c2ccc(S(N)(=O)=O)cc2)cc1 1.09

GET /values?readout=T/C&system=Nrf2 (Mus musculus)&item= COc1cc(NC(=O)CSc2nc3c(I)cc(I)cc3c(=O)n2-c2ccc(S(N)(=O)=O)cc2)cc(OC)c1OC 1.98

Field: T/C (Nrf2 (Mus musculus)). Entry: CCc1ccccc1NC(=O)CSc1nc2c(I)cc(I)cc2c(=O)n1-c1ccc(S(N)(=O)=O)cc1 1.01

Request - read-out T/C | tested on Nrf2 (Mus musculus) | compound Cc1cc([N+](=O)[O-])ccc1NC(=O)CSc1nc2c(I)cc(I)cc2c(=O)n1-c1ccc(S(N)(=O)=O)cc1 1.53

For the record NS(=O)(=O)c1ccc(-n2c(SCC(=O)Nc3ccc([N+](=O)[O-])cc3[N+](=O)[O-])nc3c(I)cc(I)cc3c2=O)cc1 , what value of T/C is listed for Nrf2 (Mus musculus)? 1.36

====

- Tested on: Nrf2 (Mus musculus)
- TEST DESCRIPTION: Activation of Nrf2 in mouse Hepa1c1c7 cells assessed as increase in NQO1 activity at 0.313 uM using menadione as substrate incubated for 20 mins followed by substrate addition and measured after 30 mins by spectrophotometry relative to control
- TEST SETTINGS: filed as activator, time 50.0 min
ENDPOINT LABEL: T/C
Give the figure by itself; no unit, no explanation.

ENTRY SMILES	T/C
CCc1ccccc1NC(=O)CSc1nc2c(I)cc(I)cc2c(=O)n1-c1ccc(S(N)(=O)=O)cc1	0.99
COc1cc(NC(=O)CSc2nc3c(I)cc(I)cc3c(=O)n2-c2ccc(S(N)(=O)=O)cc2)cc(OC)c1OC	1.02
Cc1cc([N+](=O)[O-])ccc1NC(=O)CSc1nc2c(I)cc(I)cc2c(=O)n1-c1ccc(S(N)(=O)=O)cc1	1.01

Which value of T/C has been reported for CCc1cccc(NC(=O)CSc2nc3c(I)cc(I)cc3c(=O)n2-c2ccc(S(N)(=O)=O)cc2)c1 in the records? 1.03

Recorded T/C of NS(=O)(=O)c1ccc(-n2c(SCC(=O)Nc3ccc([N+](=O)[O-])cc3[N+](=O)[O-])nc3c(I)cc(I)cc3c2=O)cc1 , please. 1.01

Query: T/C; subject: CCOc1ccc(NC(=O)CSc2nc3c(I)cc(I)cc3c(=O)n2-c2ccc(S(N)(=O)=O)cc2)cc1 1.01

====

- TGT: Nuclear factor erythroid 2-related factor 2 (Mus musculus) (UniProt Q60795)
- Sequence (Q60795 whole entry, looked up): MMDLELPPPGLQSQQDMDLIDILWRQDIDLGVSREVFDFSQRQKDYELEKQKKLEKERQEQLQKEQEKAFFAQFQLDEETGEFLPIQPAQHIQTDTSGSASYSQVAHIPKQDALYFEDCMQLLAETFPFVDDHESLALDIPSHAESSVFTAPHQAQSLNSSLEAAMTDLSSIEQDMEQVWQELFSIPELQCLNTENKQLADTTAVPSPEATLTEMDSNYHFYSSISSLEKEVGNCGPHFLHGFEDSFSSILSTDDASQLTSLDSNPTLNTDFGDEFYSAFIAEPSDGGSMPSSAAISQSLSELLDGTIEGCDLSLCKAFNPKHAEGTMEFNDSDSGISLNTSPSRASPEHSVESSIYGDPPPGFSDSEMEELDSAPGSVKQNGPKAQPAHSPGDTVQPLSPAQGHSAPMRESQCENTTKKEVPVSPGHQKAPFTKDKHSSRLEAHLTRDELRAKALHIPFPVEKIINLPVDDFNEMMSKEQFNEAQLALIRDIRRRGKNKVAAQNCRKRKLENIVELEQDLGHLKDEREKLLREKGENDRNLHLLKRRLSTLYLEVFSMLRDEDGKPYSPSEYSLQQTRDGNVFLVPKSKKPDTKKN
- TEST DESCRIPTION: Activation of Nrf2 in mouse Hepa1c1c7 cells assessed as increase in NQO1 activity at 40 uM using menadione as substrate incubated for 20 mins followed by substrate addition and measured after 30 mins by spectrophotometry relative to control
- TEST SETTINGS: filed as activator, time 50.0 min
List of T/C values.
Kindly provide the number alone.

Solved entries:
ENTRY SMILES	T/C
CCc1cccc(NC(=O)CSc2nc3c(I)cc(I)cc3c(=O)n2-c2ccc(S(N)(=O)=O)cc2)c1	1.3
COc1cc(NC(=O)CSc2nc3c(I)cc(I)cc3c(=O)n2-c2ccc(S(N)(=O)=O)cc2)cc(OC)c1OC	2.42
CCOc1ccc(NC(=O)CSc2nc3c(I)cc(I)cc3c(=O)n2-c2ccc(S(N)(=O)=O)cc2)cc1	1.16

Recall the recorded T/C for CCc1ccccc1NC(=O)CSc1nc2c(I)cc(I)cc2c(=O)n1-c1ccc(S(N)(=O)=O)cc1 with Nuclear factor erythroid 2-related factor 2 (Mus musculus) (UniProt Q60795) and state it. 1.05

Please tell me: T/C of NS(=O)(=O)c1ccc(-n2c(SCC(=O)Nc3ccc([N+](=O)[O-])cc3[N+](=O)[O-])nc3c(I)cc(I)cc3c2=O)cc1 , system Nuclear factor erythroid 2-related factor 2 (Mus musculus) (UniProt Q60795)? 1.68

====

- TGT: Nuclear factor erythroid 2-related factor 2 (Mus musculus)
- TEST DESCRIPTION: Activation of Nrf2 in mouse Hepa1c1c7 cells assessed as increase in NQO1 activity at 50 uM using menadione as substrate incubated for 20 mins followed by substrate addition and measured after 30 mins by spectrophotometry relative to control
- TEST SETTINGS: filed as activator, time 50.0 min
Catalogue of T/C readings, one per entry.
Note: the reply should be a number with no unit written.

Please review the following examples before continuing.
ENTRY SMILES	TGT	ENDPOINT LABEL	QUANTITATIVE RESULT
Cc1ccccc1NC(=O)CSc1nc2c(I)cc(I)cc2c(=O)n1-c1ccc(S(N)(=O)=O)cc1	Nuclear factor erythroid 2-related factor 2 (Mus musculus)	T/C	1.43
CCc1ccc(NC(=O)CSc2nc3c(I)cc(I)cc3c(=O)n2-c2ccc(S(N)(=O)=O)cc2)cc1	Nuclear factor erythroid 2-related factor 2 (Mus musculus)	T/C	1.14
COc1ccc(NC(=O)CSc2nc3c(I)cc(I)cc3c(=O)n2-c2ccc(S(N)(=O)=O)cc2)cc1	Nuclear factor erythroid 2-related factor 2 (Mus musculus)	T/C	1.29
Cc1ccc(NC(=O)CSc2nc3c(I)cc(I)cc3c(=O)n2-c2ccc(S(N)(=O)=O)cc2)cc1	Nuclear factor erythroid 2-related factor 2 (Mus musculus)	T/C	1.13
Cc1cccc(NC(=O)CSc2nc3c(I)cc(I)cc3c(=O)n2-c2ccc(S(N)(=O)=O)cc2)c1	Nuclear factor erythroid 2-related factor 2 (Mus musculus)	T/C	1.48

Dear colleague, I am looking for the recorded T/C of the following compound: Cc1cccc([N+](=O)[O-])c1NC(=O)CSc1nc2c(I)cc(I)cc2c(=O)n1-c1ccc(S(N)(=O)=O)cc1 1.94

Param item = COc1cc(NC(=O)CSc2nc3c(I)cc(I)cc3c(=O)n2-c2ccc(S(N)(=O)=O)cc2)cc(OC)c1 ; retrieve measured T/C. 1.81

Need T/C, item NS(=O)(=O)c1ccc(-n2c(SCC(=O)Nc3ccccc3)nc3c(I)cc(I)cc3c2=O)cc1 1.47

====

- Tested on: Nrf2 (Mus musculus)
- TEST DESCRIPTION: Activation of Nrf2 in mouse Hepa1c1c7 cells assessed as increase in NQO1 activity at 3.125 uM using menadione as substrate incubated for 20 mins followed by substrate addition and measured after 30 mins by spectrophotometry relative to control
- TEST SETTINGS: filed as activator, time 50.0 min
ENDPOINT LABEL: T/C
Give a plain numeric answer without units written out.

Recorded T/C, per entry:
ENTRY SMILES	T/C
NS(=O)(=O)c1ccc(-n2c(SCC(=O)Nc3ccccc3)nc3c(I)cc(I)cc3c2=O)cc1	1.06
COc1cc(NC(=O)CSc2nc3c(I)cc(I)cc3c(=O)n2-c2ccc(S(N)(=O)=O)cc2)cc(OC)c1	1.06
Cc1cccc([N+](=O)[O-])c1NC(=O)CSc1nc2c(I)cc(I)cc2c(=O)n1-c1ccc(S(N)(=O)=O)cc1	0.83

Now for a further compound.
What T/C value was documented for this compound, Cc1cccc(NC(=O)CSc2nc3c(I)cc(I)cc3c(=O)n2-c2ccc(S(N)(=O)=O)cc2)c1 ? 1.05

====

- Test system: Nrf2 (Mus musculus)
- TEST DESCRIPTION: Activation of Nrf2 in mouse Hepa1c1c7 cells assessed as increase in NQO1 activity at 3.125 uM using menadione as substrate incubated for 20 mins followed by substrate addition and measured after 30 mins by spectrophotometry relative to control
- TEST SETTINGS: filed as activator, time 50.0 min
ENDPOINT LABEL: T/C
Please reply with the number alone, leaving off any unit.

ENTRY SMILES	QUANTITATIVE RESULT
COc1ccc(NC(=O)CSc2nc3c(I)cc(I)cc3c(=O)n2-c2ccc(S(N)(=O)=O)cc2)cc1	0.98
NS(=O)(=O)c1ccc(-n2c(S)nc3c(I)cc(I)cc3c2=O)cc1	1.01
Cc1ccc(NC(=O)CSc2nc3c(I)cc(I)cc3c(=O)n2-c2ccc(S(N)(=O)=O)cc2)cc1	0.97
CCc1ccc(NC(=O)CSc2nc3c(I)cc(I)cc3c(=O)n2-c2ccc(S(N)(=O)=O)cc2)cc1	0.97

Next compound, T/C to be filled in.
Which T/C is listed for Cc1ccccc1NC(=O)CSc1nc2c(I)cc(I)cc2c(=O)n1-c1ccc(S(N)(=O)=O)cc1 ? 1.06
